Test system: Candida glabrata NCPF 3 943
Assay: Color, fluorescence and growth of colonies on Columbia medium with nitroreductase substrate
Type: cell-based
Set-up: key: NG: no growth; 0.5: low growth; 1: moderate growth; 2: good growth
Details: 40 mg substrate in 400 ml Columbia medium, 24 hours at 37° C.
Method: 40 mg of each of the substrates were dissolved in 4 ml of dimethylsulfoxide and added to 400 ml of previously autoclaved Columbia medium. The 5 media were distributed in Petri dishes 90 mm in diameter at the rate of 20 ml per dish. Seventeen strains of microorganisms obtained from collections and belonging to various species of bacteria and yeasts are inoculated as spots of about 10 000 colony forming units. […]
measurement label: Growth

>  <structure smiles>
COc1cc([N+](=O)[O-])ccc1C=Cc1cc[n+](C)c2ccccc12.[I-]

>  <reported>
NG

$$$$
>  <structure smiles>
O=[N+]([O-])c1ccc(C=Cc2ccc3ccccc3n2)cc1

>  <reported>
1

$$$$
>  <structure smiles>
C[n+]1c(C=Cc2ccc([N+](=O)[O-])cc2)ccc2ccccc21.[I-]

>  <reported>
NG

$$$$
>  <structure smiles>
C[n+]1ccc(C=Cc2ccc([N+](=O)[O-])cc2)c2ccccc21.[I-]

>  <reported>
0.5

$$$$

* * *

system: Candida albicans ATCC 90 028; assay: Color, fluorescence and growth of colonies on Columbia medium with nitroreductase substrate; assay type: cell-based; set-up: key: NG: no growth; 0.5: low growth; 1: moderate growth; 2: good growth; conditions: 40 mg substrate in 400 ml Columbia medium, 24 hours at 37° C.
Entries annotated with measured Growth

>  <structure smiles>
C[n+]1c(C=Cc2ccc([N+](=O)[O-])cc2)ccc2ccccc21.[I-]

>  <Growth>
0.5

$$$$
>  <structure smiles>
O=[N+]([O-])c1ccc(C=Cc2ccc3ccccc3n2)cc1

>  <Growth>
0.5

$$$$
>  <structure smiles>
COc1cc([N+](=O)[O-])ccc1C=Cc1cc[n+](C)c2ccccc12.[I-]

>  <Growth>
0.5

$$$$

* * *

System: Listeria monocytogenes NCTC 11 994
Assay: Color, fluorescence and growth of colonies on Columbia medium with nitroreductase substrate
Assay type: cell-based
Set-up: key: NG: no growth; 0.5: low growth; 1: moderate growth; 2: good growth
Settings: 40 mg substrate in 400 ml Columbia medium, 24 hours at 37° C.
Description: 40 mg of each of the substrates were dissolved in 4 ml of dimethylsulfoxide and added to 400 ml of previously autoclaved Columbia medium. The 5 media were distributed in Petri dishes 90 mm in diameter at the rate of 20 ml per dish. Seventeen strains of microorganisms obtained from collections and belonging to various species of bacteria and yeasts are inoculated as spots of about 10 000 colony forming units. […]

>  <structure smiles>
COc1cc([N+](=O)[O-])ccc1C=Cc1cc[n+](C)c2ccccc12.[I-]

>  <target or test system>
Listeria monocytogenes NCTC 11 994

>  <Growth>
2

$$$$
>  <structure smiles>
C[n+]1ccc(C=Cc2ccc([N+](=O)[O-])cc2)c2ccccc21.[I-]

>  <target or test system>
Listeria monocytogenes NCTC 11 994

>  <Growth>
1

$$$$
>  <structure smiles>
O=[N+]([O-])c1ccc(C=Cc2ccc3ccccc3n2)cc1

>  <target or test system>
Listeria monocytogenes NCTC 11 994

>  <Growth>
1

$$$$
>  <structure smiles>
C[n+]1c(C=Cc2ccc([N+](=O)[O-])cc2)ccc2ccccc21.[I-]

>  <target or test system>
Listeria monocytogenes NCTC 11 994

>  <Growth>
1

$$$$
